# test_system: recombinant Axl tyrosine kinase (Homo sapiens)
# Construct: encompassing amino acids 473 to 894 of Axl; GST (N); made in house; host or cells: SF126 insect cells
# Sequence (P30530 473-894): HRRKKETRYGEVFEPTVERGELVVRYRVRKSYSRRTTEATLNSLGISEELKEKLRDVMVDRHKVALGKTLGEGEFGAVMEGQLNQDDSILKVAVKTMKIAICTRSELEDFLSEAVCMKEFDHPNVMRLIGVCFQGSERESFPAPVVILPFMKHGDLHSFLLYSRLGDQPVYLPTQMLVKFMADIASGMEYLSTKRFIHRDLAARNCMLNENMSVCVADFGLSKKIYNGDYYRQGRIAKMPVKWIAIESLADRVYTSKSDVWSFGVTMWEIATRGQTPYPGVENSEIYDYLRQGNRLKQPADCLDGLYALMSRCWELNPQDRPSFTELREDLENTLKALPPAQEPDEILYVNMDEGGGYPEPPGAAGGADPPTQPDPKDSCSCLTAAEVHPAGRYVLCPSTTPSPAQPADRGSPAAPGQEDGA
# assay_summary: In vitro Axl kinase assay (AlphaScreen), Test (a)
# Assay type: biochemical
# test_parameters: test compound at 1 μM; first value quoted; read-out: % Axl tyrosine kinase inhibition at 1 μM concentration
measured_quantity: inhibition at 1 µM (%)
Answer with a number only, understood to be in %.

Consider the worked cases shown below.
- compound: "Cc1nn(C2CCN(C(=O)OC(C)(C)C)CC2)cc1-c1cnc(N)c(-c2nc3ccccc3o2)c1 [Example 21]"
  test_system: "recombinant Axl tyrosine kinase (Homo sapiens)"
  unit_name: "%"
  inhibition at 1 µM: 9.7
- compound: "Nc1ncc(-c2cn(C3CCNCC3)nn2)cc1-c1nc2ccccc2o1 [Example 40]"
  test_system: "recombinant Axl tyrosine kinase (Homo sapiens)"
  unit_name: "%"
  inhibition at 1 µM: 100
- compound: "CN1CCC(n2cc(-c3cnc(N)c(-c4nc5cccc(CO)c5o4)c3)cn2)CC1 [Example 65]"
  test_system: "recombinant Axl tyrosine kinase (Homo sapiens)"
  unit_name: "%"
  inhibition at 1 µM: 100

Q) Return inhibition at 1 µM measured with recombinant Axl tyrosine kinase (Homo sapiens) given this compound: Nc1ncc(-c2cnn(C3CCNCC3)c2)cc1-c1nc2ccncc2o1 [Example 11]
A) 99
